Origin of measurements: patent US20230099441A1

System: STAT5 Y694 phosphorylation
Assay: Protein electrophoresis and blotting of STAT5 Y694 phosphorylation in Jurkat cells stimulated with human interferon beta
Assay type: cell-based
Details: 100 μM, 1 hour pretreatment, 20 ng/ml human interferon beta 30 minutes, pSTAT5/GAPDH
Entries annotated with measured Inhibiting Ratio (0% for vehicle control)
// units = %; emit number, no label

> print(dat)
                                item.smiles       target.or.test.system   val
1  N#Cc1cccc2[nH]c(=O)n(C3CCN(C(=O)Cc4ccc(C(F)(F)F)cc4)CC3)c12  STAT5 Y694 phosphorylation  99.1
2  COc1cccc2[nH]c(=O)n(C3CCN(C(=O)Cc4ccc(C(F)(F)F)cc4)CC3)c12  STAT5 Y694 phosphorylation  95.7
3  COc1ccc2c(c1)[nH]c(=O)n2C1CCN(C(=O)Cc2ccc(C(F)(F)F)cc2)CC1  STAT5 Y694 phosphorylation  96.6

[Q] Fill blank: measured Inhibiting Ratio (0% for vehicle control) of the compound `N#Cc1ccc2[nH]c(=O)n(C3CCN(C(=O)Cc4ccc(C(F)(F)F)cc4)CC3)c2c1` is ____.
[A] 94.8

[Q] Fill blank: measured Inhibiting Ratio (0% for vehicle control) of the compound `CC(C)(C)c1ccc(CC(=O)N2CCC(n3c(=O)[nH]c4ccccc43)CC2)cc1` is ____.
[A] 98.7

###

System: STAT5 Y694 phosphorylation
Experiment: Protein electrophoresis and blotting of STAT5 Y694 phosphorylation in Jurkat cells stimulated with human interferon beta
Format: cell-based
Details: observed pSTAT5 bands at 10 μM and 100 μM
METRIC: Example of Effect 1: Inhibiting Ability (Protein Electrophoresis and Blotting)

> print(dat)
                                   compound  val
1  Cc1[nH]c(=O)n(C2CCN(C(=O)Cc3ccc(C(F)(F)F)cc3)CC2)c1-c1ccccc1    +
2  O=C(Cc1ccc(C(F)(F)F)cn1)N1CCC(n2c(=O)[nH]c3ccccc32)CC1    −
3  O=C(Cc1ccc2ncccc2c1)N1CCC(n2c(=O)[nH]c3cccc(C(F)(F)F)c32)CC1   ++
4  O=C(Cc1ccc(C(F)(F)F)cc1)N1CCC(n2c(=O)[nH]c3cccc(C(F)(F)F)c32)CC1    +
5  CC(C)(C)c1ccc(CC(=O)N2CCC(N3CC(=O)Nc4ccccc43)CC2)cc1    +
6  COc1cccc2c1[nH]c(=O)n2C1CCN(C(=O)Cc2ccc(C(F)(F)F)cc2)CC1    +

[Q] Fill blank: measured Example of Effect 1: Inhibiting Ability (Protein Electrophoresis and Blotting) of the compound `O=C(Cc1ccc(C(F)(F)F)cc1)N1CCC(N2C(=O)NCc3ccccc32)CC1` is ____.
[A] +

[Q] Fill blank: measured Example of Effect 1: Inhibiting Ability (Protein Electrophoresis and Blotting) of the compound `O=C(Cc1ccc(C(F)(F)F)cc1)N1CCC(n2c(=O)[nH]c3ccc(C(F)(F)F)cc32)CC1` is ____.
[A] +

[Q] Fill blank: measured Example of Effect 1: Inhibiting Ability (Protein Electrophoresis and Blotting) of the compound `O=C(Cc1ccc(C(F)(F)F)cc1)N[C@H]1CC[C@@H](n2c(=O)[nH]c3ccccc32)CC1` is ____.
[A] +

###

Entries annotated with measured Inhibiting Ratio (0% for vehicle control)
System: STAT5 Y694 phosphorylation
Assay: Protein electrophoresis and blotting of STAT5 Y694 phosphorylation in Jurkat cells stimulated with human interferon beta
Assay type: cell-based
Conditions: 100 μM, 1 hour pretreatment, 20 ng/ml human interferon beta 30 minutes, pSTAT5/GAPDH
In your response, put the unit directly after the numeric value.

> print(dat)
                                   compound    val
1  O=C(Cc1ccc(C(F)(F)F)cc1)N1CCC(n2c(=O)[nH]c3c(C(F)(F)F)cccc32)CC1 [GEN1-001]  96.8%
2  O=C(CCc1ccc(C(F)(F)F)cc1)N1CCC(n2c(=O)[nH]c3ccccc32)CC1 [GEN1-018]  98.6%
3  O=C(Cc1ccncc1)N1CCC(n2c(=O)[nH]c3ccccc32)CC1 [Example X3]  87.5%
4  O=C(Cc1ccc(C(F)(F)F)cn1)N1CCC(n2c(=O)[nH]c3ccccc32)CC1 [GEN1-028]  93.3%
5  Cc1ccc(CC(=O)N2CCC(n3c(=O)[nH]c4ccccc43)CC2)cc1 [Example X7]  88.5%
6  O=C(Cc1ccc(-c2ccccc2)cc1)N1CCC(n2c(=O)[nH]c3ccccc32)CC1 [GEN1-033]  98.0%

Okay, now this compound:
[Q] # returns recorded Inhibiting Ratio (0% for vehicle control) (system: STAT5 Y694 phosphorylation) for O=C(Cc1cccc(C(F)(F)F)c1)N1CCC(n2c(=O)[nH]c3ccccc32)CC1 [GEN1-029]
[A] 92.3%
